- Target: Sodium channel protein type 9 subunit alpha (Homo sapiens, UniProt Q15858)
- Sequence (Q15858 whole entry): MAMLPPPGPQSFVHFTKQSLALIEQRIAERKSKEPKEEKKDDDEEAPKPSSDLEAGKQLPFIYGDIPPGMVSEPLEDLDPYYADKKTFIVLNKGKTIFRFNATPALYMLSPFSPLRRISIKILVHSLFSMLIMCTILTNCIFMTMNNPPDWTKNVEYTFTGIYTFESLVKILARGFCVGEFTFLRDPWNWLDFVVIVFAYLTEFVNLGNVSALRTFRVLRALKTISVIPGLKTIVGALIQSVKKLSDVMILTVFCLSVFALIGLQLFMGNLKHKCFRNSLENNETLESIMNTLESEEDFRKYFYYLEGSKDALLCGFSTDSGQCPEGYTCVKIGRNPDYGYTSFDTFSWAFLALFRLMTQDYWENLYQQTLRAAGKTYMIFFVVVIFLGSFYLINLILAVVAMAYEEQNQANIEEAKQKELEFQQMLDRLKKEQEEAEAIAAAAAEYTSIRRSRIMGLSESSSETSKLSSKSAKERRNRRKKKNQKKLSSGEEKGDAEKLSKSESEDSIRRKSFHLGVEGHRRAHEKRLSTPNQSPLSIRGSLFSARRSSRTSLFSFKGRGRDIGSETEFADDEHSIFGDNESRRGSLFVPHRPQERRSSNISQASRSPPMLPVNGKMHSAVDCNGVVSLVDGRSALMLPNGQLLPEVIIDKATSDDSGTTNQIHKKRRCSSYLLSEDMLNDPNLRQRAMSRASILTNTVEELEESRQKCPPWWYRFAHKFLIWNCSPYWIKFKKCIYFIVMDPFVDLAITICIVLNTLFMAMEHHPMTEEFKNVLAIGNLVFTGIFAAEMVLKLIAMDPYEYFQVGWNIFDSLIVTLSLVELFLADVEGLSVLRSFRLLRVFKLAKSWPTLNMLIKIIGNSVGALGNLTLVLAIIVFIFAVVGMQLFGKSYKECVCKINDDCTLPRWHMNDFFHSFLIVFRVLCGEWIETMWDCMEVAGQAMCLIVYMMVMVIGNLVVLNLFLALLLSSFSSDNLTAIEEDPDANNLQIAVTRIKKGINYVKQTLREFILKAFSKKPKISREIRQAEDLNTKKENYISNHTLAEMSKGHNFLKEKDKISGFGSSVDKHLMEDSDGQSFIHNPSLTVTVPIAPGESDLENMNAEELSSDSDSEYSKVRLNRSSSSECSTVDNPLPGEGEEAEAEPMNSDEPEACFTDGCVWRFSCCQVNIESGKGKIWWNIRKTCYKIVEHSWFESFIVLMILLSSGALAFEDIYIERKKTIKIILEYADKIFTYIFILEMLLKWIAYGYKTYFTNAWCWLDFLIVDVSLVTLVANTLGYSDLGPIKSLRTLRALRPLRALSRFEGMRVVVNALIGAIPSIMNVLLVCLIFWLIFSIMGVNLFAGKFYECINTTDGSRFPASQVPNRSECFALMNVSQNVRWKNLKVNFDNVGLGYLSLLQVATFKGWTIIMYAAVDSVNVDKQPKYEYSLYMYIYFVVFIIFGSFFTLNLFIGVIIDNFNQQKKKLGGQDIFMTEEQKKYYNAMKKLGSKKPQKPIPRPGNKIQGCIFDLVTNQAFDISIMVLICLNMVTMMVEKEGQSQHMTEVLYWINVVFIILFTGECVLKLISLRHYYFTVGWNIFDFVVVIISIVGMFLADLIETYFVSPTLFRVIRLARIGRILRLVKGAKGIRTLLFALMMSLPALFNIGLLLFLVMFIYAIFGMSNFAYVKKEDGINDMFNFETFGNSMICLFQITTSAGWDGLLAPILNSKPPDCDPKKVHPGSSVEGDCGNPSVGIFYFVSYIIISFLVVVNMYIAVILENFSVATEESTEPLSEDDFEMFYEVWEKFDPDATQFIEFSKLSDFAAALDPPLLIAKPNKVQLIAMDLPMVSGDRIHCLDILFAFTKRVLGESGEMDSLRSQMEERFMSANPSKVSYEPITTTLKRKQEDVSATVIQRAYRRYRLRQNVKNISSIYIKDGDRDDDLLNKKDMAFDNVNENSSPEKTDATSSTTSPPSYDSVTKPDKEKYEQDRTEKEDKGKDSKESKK
- Experimental details: In Vitro Assay (Protocol 2)
Measurement kind: IC50 (nM)

Worked cases, answers included:
Inquiry: Value wanted: IC50 (Sodium channel protein type 9 subunit alpha (Homo sapiens, UniProt Q15858)) of entry CC(C)Oc1ccc(-c2cncc(C(=O)N/N=C/C3CCC(F)(F)CC3)n2)cc1
Reply text: 400

Inquiry: Proceed to CCCOc1ccccc1/C=N/NC(=O)c1cncc(-c2ccc(OC)cc2)n1
Reply text: 3620

a: CCOc1ccccc1/C=N/NC(=O)c1cncc(-c2ccc(OC)cc2)n1
b: COc1ccc(-c2cncc(C(=O)N/N=C/c3cc(OC(C)C)cc(OC(C)C)c3)n2)cc1
Inquiry: Looking only at measured IC50, which entry is lower, a or b ? # answer = label of selected item
Reply text: b

* * *

- Target: Sodium channel protein type 9 subunit alpha (Homo sapiens, UniProt Q15858)
- Experimental details: In Vitro Assay (Protocol 2)
- Description: Compounds of Formula (I), were diluted in eight concentrations in the extracellular solution composed of physiological saline, buffered with HEPES (mM): NaCl, 137; KCl, 4; CaCl2, 3.8; MgCl2, 1; HEPES, 10; Glucose, 10; pH 7.4. The […], 50; CsF, 90; MgCl2, 5; EGTA, 5; HEPES, 10; pH 7.2. […] Protocols were repeated at a frequency of 0.05 Hz and current amplitude was quantified over the TP1A phase log.
Measurement kind: IC50 (nM)

Answered examples (5):
Inquiry: // returns reported IC50 for input CCOc1ccc(-c2nc(C(=O)N/N=C/c3cc(OC)cc(OC)c3)cnc2CC)cc1
Reply text: 1890

Inquiry: // next record COc1ccc(-c2cncc(C(=O)N/N=C/c3cc(OC)cc(OC)c3OC)n2)cc1
Reply text: 1490

Inquiry: And what about the compound CCOc1ccc(-c2cncc(C(=O)N/N=C/C3=C(C)CCCCC3)n2)cc1 ?
Reply text: 425

Inquiry: One more compound: CCOc1ccc(-c2cncc(C(=O)N/N=C/c3cc(OC)cc(C(C)O)c3)n2)cc1 (stereo not drawn)
Reply text: 1910

Inquiry: Next entry: COc1ccc(-c2cncc(C(=O)N/N=C/c3cc(C)cc(C)c3)n2)cc1
Reply text: 464

a: COc1ccc(-c2cncc(C(=O)N/N=C/c3cc(F)cc(F)c3)n2)cc1
b: CCCOc1cc(/C=N/NC(=O)c2cncc(-c3ccc(OC)cc3)n2)cc(OCCC)c1
c: CCOc1ccc(-c2cncc(C(=O)N/N=C/C3=C(C)CCCC3)n2)cc1
d: COc1ccc(-c2cncc(C(=O)N/N=C/C3=C(C)CCCC3)n2)cc1
Inquiry: Rank the items in ascending order with respect to IC50. Present the labels in the sequence the task asks for.
Reply text: c, d, b, a

* * *

- Target: Sodium channel protein type 10 subunit alpha (Homo sapiens, UniProt Q9Y5Y9)
- Sequence (Q9Y5Y9 whole entry): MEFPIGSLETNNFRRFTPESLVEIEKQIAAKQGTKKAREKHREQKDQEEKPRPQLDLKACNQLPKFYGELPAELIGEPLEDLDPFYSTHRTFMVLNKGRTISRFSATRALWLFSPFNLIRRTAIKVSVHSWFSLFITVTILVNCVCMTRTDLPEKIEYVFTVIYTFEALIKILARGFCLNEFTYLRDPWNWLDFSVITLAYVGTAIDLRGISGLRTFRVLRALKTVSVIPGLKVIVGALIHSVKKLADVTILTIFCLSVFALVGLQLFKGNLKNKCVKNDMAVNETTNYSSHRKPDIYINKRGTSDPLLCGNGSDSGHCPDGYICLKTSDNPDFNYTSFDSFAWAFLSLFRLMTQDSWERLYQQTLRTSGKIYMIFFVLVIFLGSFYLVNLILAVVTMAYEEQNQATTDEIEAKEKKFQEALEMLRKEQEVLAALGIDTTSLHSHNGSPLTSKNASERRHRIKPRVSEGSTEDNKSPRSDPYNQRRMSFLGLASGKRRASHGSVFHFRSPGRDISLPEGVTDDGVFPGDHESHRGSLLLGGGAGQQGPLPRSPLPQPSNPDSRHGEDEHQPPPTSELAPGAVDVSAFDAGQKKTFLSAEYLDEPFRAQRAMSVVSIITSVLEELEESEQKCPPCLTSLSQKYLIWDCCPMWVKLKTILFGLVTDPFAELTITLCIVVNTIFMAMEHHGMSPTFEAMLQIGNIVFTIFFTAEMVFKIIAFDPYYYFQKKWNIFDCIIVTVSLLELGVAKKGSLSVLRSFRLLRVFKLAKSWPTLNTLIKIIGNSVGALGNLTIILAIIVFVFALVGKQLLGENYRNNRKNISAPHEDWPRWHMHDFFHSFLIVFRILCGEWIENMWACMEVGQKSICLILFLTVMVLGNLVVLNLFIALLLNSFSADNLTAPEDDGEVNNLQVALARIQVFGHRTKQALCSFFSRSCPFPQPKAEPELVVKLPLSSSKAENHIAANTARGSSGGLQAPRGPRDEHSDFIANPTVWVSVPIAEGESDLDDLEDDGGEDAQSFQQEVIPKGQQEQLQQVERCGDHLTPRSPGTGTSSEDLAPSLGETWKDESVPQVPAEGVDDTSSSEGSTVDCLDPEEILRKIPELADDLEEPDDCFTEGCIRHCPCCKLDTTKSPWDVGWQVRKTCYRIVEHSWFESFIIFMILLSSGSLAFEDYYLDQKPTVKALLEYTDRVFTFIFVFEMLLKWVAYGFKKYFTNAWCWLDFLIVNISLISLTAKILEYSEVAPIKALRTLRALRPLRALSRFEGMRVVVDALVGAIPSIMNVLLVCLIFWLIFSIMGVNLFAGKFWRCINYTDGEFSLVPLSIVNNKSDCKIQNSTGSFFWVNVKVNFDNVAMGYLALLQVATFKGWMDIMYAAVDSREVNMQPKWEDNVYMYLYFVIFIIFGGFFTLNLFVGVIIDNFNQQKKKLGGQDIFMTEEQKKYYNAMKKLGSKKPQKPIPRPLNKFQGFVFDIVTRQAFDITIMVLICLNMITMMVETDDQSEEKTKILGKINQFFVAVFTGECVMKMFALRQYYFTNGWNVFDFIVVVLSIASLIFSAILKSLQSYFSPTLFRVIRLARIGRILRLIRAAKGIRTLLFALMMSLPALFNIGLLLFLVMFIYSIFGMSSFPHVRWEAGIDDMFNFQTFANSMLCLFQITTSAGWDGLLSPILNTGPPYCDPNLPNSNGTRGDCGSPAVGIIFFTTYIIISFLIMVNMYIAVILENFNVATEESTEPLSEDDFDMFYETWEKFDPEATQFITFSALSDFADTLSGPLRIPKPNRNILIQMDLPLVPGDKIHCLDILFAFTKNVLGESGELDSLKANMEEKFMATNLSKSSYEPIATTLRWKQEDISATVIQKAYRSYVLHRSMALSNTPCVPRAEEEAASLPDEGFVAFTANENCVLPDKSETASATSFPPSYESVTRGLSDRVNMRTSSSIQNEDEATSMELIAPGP
- Experimental details: In Vitro Assay (Protocol 2)
Measurement kind: IC50 (nM)

Guide cases for IC50, answers given:
Inquiry: Which IC50 is reported for this compound? CCOc1ccccc1/C=N/NC(=O)c1cncc(-c2ccc(OC)cc2)n1 [US20240335442, Compound 43]
Reply text: 188

Inquiry: Now this one: CCCOc1ccccc1/C=N/NC(=O)c1cncc(-c2ccc(OC)cc2)n1 [US20240335442, Compound 44]
Reply text: 163

Inquiry: // query: CCCOc1cc(/C=N/NC(=O)c2cncc(-c3ccc(OC)cc3)n2)cc(OCCC)c1 [US20240335442, Compound 68]
Reply text: 289

Inquiry: Now give it for CCOc1ccc(-c2nc(C(=O)N/N=C/c3cc(OC)cc(OC)c3)cnc2CC)cc1 [US20240335442, Compound 208] too.
Reply text: 431

Inquiry: Another compound: COc1ccc(-c2cncc(C(=O)N/N=C/c3cc(OC)cc(OC)c3OC)n2)cc1 [US20240335442, Compound 80]
Reply text: 352

P: CCOc1ccc(-c2nc(C(=O)N/N=C/c3cc(OC)cc(OC)c3)cnc2C)cc1 [US20240335442, Compound 207]
Q: CCOc1ccc(-c2cncc(C(=O)N/N=C/c3cc(OC)cc(C(C)O)c3)n2)cc1 (configuration not stated) [US20240335442, Compound 215]
Inquiry: Between the entries labelled P and Q , which has a larger IC50 value on record? Mark your selection by writing its label.
Reply text: P
(P: 472 nM, Q: 116 nM)

* * *

- Target: Sodium channel protein type 10 subunit alpha (Homo sapiens, UniProt Q9Y5Y9)
- Experimental details: In Vitro Assay (Protocol 2)
Measurement kind: IC50

The following compounds have reported results that may help.
Inquiry: Return reported IC50; argument: COc1ccc(-c2cncc(C(=O)N/N=C/c3cc(OC(C)C)cc(OC(C)C)c3)n2)cc1
Reply text: 0.517 µM

Inquiry: Again, but for CCOc1ccc(-c2nc(C(=O)N/N=C/c3cc(OC)cc(OC)c3)cnc2OC)cc1
Reply text: > 1 µM

Inquiry: Same for COc1ccc(Oc2nccnc2C(=O)N/N=C/c2cc(OC)cc(OC)c2)cc1
Reply text: > 1 µM

New cases:
Inquiry: Fill in: IC50 of COc1ccc(-c2cncc(C(=O)N/N=C/c3cc(OC)c(OC)c(OC)c3)n2)cc1 is ___
Reply text: > 1 µM

* * *

- Target: Sodium channel protein type 10 subunit alpha (Homo sapiens)
- Experimental details: In Vitro Assay (Protocol 2)
Measurement kind: IC50 (µM)

Inquiry: What measured IC50 is associated with CC(C)Oc1ccc(-c2cncc(C(=O)N/N=C/C3CCC(F)(F)CC3)n2)cc1 [US20240335442, Compound 176] on Sodium channel protein type 10 subunit alpha (Homo sapiens)?
Reply text: 0.456

a: COc1ccc(-c2cncc(C(=O)N/N=C/c3cc(F)cc(F)c3)n2)cc1 [US20240335442, Compound 70]
b: CCOc1ccc(-c2cncc(C(=O)N/N=C/C3=C(C)CCCCC3)n2)cc1 [US20240335442, Compound 201]
c: COc1ccc(-c2cncc(C(=O)N/N=C/C3=C(C)CCCC3)n2)cc1 [US20240335442, Compound 197]
d: CCOc1ccc(-c2cncc(C(=O)N/N=C/C3=C(C)CCCC3)n2)cc1 [US20240335442, Compound 198]
Inquiry: Please give the order of these compounds when sorted by IC50, largest value leading. Put the labels in the order asked and list them.
Reply text: a, c, b, d
